- system: Perilipin-5 (Homo sapiens) + 1-acylglycerol-3-phosphate O-acyltransferase ABHD5 (Homo sapiens) (UniProt Q00G26+Q8WTS1)
- Sequence (Q00G26 whole entry, looked up): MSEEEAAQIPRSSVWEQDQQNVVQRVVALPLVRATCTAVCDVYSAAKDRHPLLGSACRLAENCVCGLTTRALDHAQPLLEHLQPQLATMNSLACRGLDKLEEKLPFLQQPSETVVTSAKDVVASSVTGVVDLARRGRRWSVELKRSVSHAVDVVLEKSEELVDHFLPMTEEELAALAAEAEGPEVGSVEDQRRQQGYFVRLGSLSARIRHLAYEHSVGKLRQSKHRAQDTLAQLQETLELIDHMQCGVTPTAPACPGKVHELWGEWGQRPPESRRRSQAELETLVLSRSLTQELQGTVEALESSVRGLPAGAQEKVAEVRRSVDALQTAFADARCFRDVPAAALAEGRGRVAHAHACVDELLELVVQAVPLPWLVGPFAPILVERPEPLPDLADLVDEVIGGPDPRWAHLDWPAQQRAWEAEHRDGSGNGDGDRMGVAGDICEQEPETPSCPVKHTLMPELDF
- Sequence (Q8WTS1 whole entry, looked up): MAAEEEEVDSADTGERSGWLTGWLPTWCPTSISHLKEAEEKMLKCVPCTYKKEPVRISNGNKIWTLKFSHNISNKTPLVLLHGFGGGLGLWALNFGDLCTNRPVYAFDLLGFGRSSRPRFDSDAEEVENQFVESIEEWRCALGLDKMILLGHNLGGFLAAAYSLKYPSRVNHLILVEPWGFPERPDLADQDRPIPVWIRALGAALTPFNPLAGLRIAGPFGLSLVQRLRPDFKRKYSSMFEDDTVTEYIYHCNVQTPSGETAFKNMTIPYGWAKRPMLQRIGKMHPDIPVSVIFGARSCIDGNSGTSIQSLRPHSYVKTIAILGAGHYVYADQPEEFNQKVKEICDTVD
- protocol text: ABHD5-PLIN5 binding inhibitors, late-stage follow-up, biochemical, luminescence, dose response, round 2 (AID 652124)
- experimental setup: biochemical ABHD5-PLIN5 interaction
Calls of active or inactive are those of the source. How the calls were made is not given here.
Possible outcomes: Y (active), N (inactive)

{"chemical smiles": "Cc1ccc(CS(=O)(=O)c2ncc(Cl)c(C(=O)N3CCN(C)CC3)n2)cc1", "class label": "Y"}
{"chemical smiles": "O=C(Cc1cccc(F)c1)N1CCN(S(=O)(=O)c2ccc3c(c2)OCCO3)CC1", "class label": "N"}
{"chemical smiles": "CCCC(=O)N(CCCN1CCOCC1)c1nc2ccc(Cl)cc2s1", "class label": "N"}
{"chemical smiles": "CN1C(=O)c2ccccc2Oc2ccc(NC(=O)c3cc4ccccc4[nH]3)cc21", "class label": "N"}
{"chemical smiles": "COc1ccc(OCC(=O)Nc2ccc3c(c2)N(C(C)C)C(=O)c2ccccc2O3)cc1", "class label": "N"}
{"chemical smiles": "CCCC(=O)Nc1ccc2c(c1)C(=O)N(C)c1cc(C)ccc1O2", "class label": "N"}
{"chemical smiles": "CN(C(=O)c1nc(S(C)(=O)=O)ncc1Cl)c1ccccc1", "class label": "Y"}
{"chemical smiles": "CN(C)CCCN(C(=O)c1cc2ccccc2oc1=O)c1nc2ccc(Cl)cc2s1", "class label": "N"}
{"chemical smiles": "CN(C)CCCN(C(=O)C1CCCCC1)c1nc2cc(Br)ccc2s1", "class label": "N"}
{"chemical smiles": "O=C(c1nc(S(=O)(=O)Cc2ccccc2)ncc1Cl)N(Cc1ccccc1)Cc1ccco1", "class label": "Y"}

---

- system: Perilipin-5 (Homo sapiens) + 1-acylglycerol-3-phosphate O-acyltransferase ABHD5 (Homo sapiens) (UniProt Q00G26+Q8WTS1)
- protocol text: ABHD5-PLIN5 binding inhibitors, late-stage follow-up, biochemical, luminescence, dose response, round 2 (AID 652124)
- experimental setup: biochemical ABHD5-PLIN5 interaction
Calls of active or inactive are those of the source. No rule for the calls is given here.
Outcomes: 1.0 = active, 0.0 = inactive

{"compound": "CCCS(=O)(=O)c1ncc(Cl)c(C(=O)Nc2ccc(C(=O)OC)cc2)n1", "class label": 1.0}
{"compound": "O=C(C1COc2ccccc2O1)N1CCN(S(=O)(=O)c2ccc3c(c2)OCCO3)CC1 (stereo unspecified)", "class label": 0.0}
{"compound": "CN(C)CCCN(C(=O)CCc1ccccc1)c1nc2ccc(Cl)cc2s1", "class label": 0.0}
{"compound": "Cc1ccc(CS(=O)(=O)c2ncc(Cl)c(C(=O)NCc3ccc4c(c3)OCO4)n2)cc1", "class label": 1.0}
{"compound": "Cc1ccc(NC(=O)c2nc(S(C)(=O)=O)ncc2Cl)cc1", "class label": 1.0}
{"compound": "COc1ccc(CC(=O)N2CCN(S(=O)(=O)c3ccc4c(c3)OCCCO4)CC2)cc1", "class label": 0.0}
{"compound": "CN1C(=O)c2ccccc2Oc2ccc(NC(=O)c3cccs3)cc21", "class label": 0.0}
{"compound": "CN(C)CCCN(C(=O)Cc1ccc(F)cc1)c1nc2ccc(Cl)cc2s1", "class label": 0.0}
{"compound": "NS(=O)(=O)c1ccc(NC(=O)c2nc(S(=O)(=O)Cc3ccccc3)ncc2Cl)cc1", "class label": 1.0}
{"compound": "CCCS(=O)(=O)c1ccc(Cl)c(C(=O)Nc2ccc(C(=O)OCC)cc2)c1", "class label": 1.0}
{"compound": "CCS(=O)(=O)c1ncc(Cl)c(C(=O)Nc2ccc(C)cc2)n1", "class label": 1.0}
{"compound": "CCS(=O)(=O)c1ncc(Cl)c(C(=O)Nc2ccc(S(N)(=O)=O)cc2)n1", "class label": 1.0}
{"compound": "COc1ccc(CCNC(=O)c2nc(S(=O)(=O)Cc3ccc(F)cc3)ncc2Cl)cc1OC", "class label": 1.0}
{"compound": "CC(NC(=O)CN1CCN(S(=O)(=O)c2ccc3c(c2)OCCCO3)CC1)c1cc2ccccc2o1 (stereo unspecified)", "class label": 0.0}
{"compound": "Cc1ccc(CS(=O)(=O)c2ncc(Cl)c(C(=O)Nc3nnc(C(C)C)s3)n2)cc1", "class label": 0.0}
{"compound": "O=C(Cc1ccc2c(c1)CCCC2)N1CCN(S(=O)(=O)c2ccc3c(c2)OCCO3)CC1", "class label": 0.0}
{"compound": "CCCCCCNC(=O)Nc1ccc2c(c1)Sc1ccccc1C(=O)N2C", "class label": 0.0}
{"compound": "CN(C)CCCN(C(=O)C1CCCCC1)c1nc2cc(Cl)ccc2s1", "class label": 0.0}
{"compound": "CN1C(=O)c2ccccc2Sc2ccc(NC(=O)NCCc3cccs3)cc21", "class label": 1.0}
{"compound": "CN1C(=O)c2ccccc2Sc2ccc(NC(=O)NCCCc3ccccc3)cc21", "class label": 1.0}
{"compound": "Cc1ccc(CS(=O)(=O)c2ncc(Cl)c(C(=O)Nc3cccc4ccccc34)n2)cc1", "class label": 1.0}
